# Test system: SF-539 CNS
# Procedure summary: NCI-60 one-dose screen, 48 h (100 = growth as untreated, 0 = no growth, -100 = all killed)
# Experimental setup: 10 µM
# Description: Cells are grown in 96 well plates and exposed to the test compound for 48 hours. Compounds are tested at a single concentration, which is 10^-5 M for most compounds. The reported endpoint is percent growth (GI% or GIPRCNT), where numbers from 0 - 100% represent growth inhibition, and numbers from -100% - 0 represent cell death. For example, a value of 40 represents 60% growth inhibition. A value of 0 means no net growth occurred over the course of the experiment. […]
About 83,000 compounds went through this panel and 20% of them were active in at least one assay; those are over-represented in the sample as a whole.
Outcome measure: growth (%)
Please reply with the bare figure in % and do not write the unit itself.

A selection of reference data follows.
The compound listed as CCN1CC(CCN2CCOCC2)C(C(c2ccccc2)c2ccccc2)C1=O (stereo unspecified) shows growth equal to 111

Summary for this compound, CC(C)CCN(CCC(C)C)CC(=O)Nc1ccc(S(=O)(=O)c2ccc(NC(=O)CN(CCC(C)C)CCC(C)C)cc2)cc1 : growth is 21.4

Entry COc1ccc(-c2cc(-c3ccc(OC)c(OC)c3)nc(SCCCC(=O)NO)n2)cc1 , growth reported as 1.28

---
Reported growth ( CC1=NN(C(=O)c2nn(-c3ccc(Cl)cc3)cc2O)C(=O)C1 ) = 51.9

Entry CCOC(=O)C1=CSC2=NC3=C(CCC/C3=C\c3ccc(Cl)cc3)C(c3ccc(Cl)cc3)N12 (stereo unspecified) , growth reported as 103

So for O=S(=O)(NCCCNc1nccc(-c2cn(-c3ccccc3)nc2-c2ccc(Cl)c(O)c2)n1)c1ccccc1 , the logged growth turned out to be 88.9

Per the record, O[C@@H]1CO[C@H]2[C@@H]1OC[C@@H]2O has growth of 106

The compound identified as O=C(CI)OCC(COC(=O)CI)OC(=O)CI registered its growth at 114

Entry C=CCN(CC=C)C(=O)[C@H](CC)[C@@H]1CC[C@@H](C)[C@@H]([C@H](C)[C@@H](O)[C@@H](C)C(=O)[C@H](CC)C2O[C@]3(C=CC(=O)[C@]4(CC[C@@](C)([C@H]5CC[C@](O)(CC)[C@H](C)O5)O4)O3)[C@H](C)C[C@@H]2C)O1 (stereo partly specified) , growth reported as 53.2

Reported growth ( CCNCC(=O)Nc1ccc(C(=O)OCC)cc1 ) = 100

# growth (compound: COc1cc(C(=O)n2nc(-c3cc(OC)c(OC)c(OC)c3)nc2N)cc(OC)c1OC ) is 96.6

The compound CCOC(=O)c1sc2ncnc(Nc3ccc4c(cnn4C(=O)Nc4ccc(C)c(Cl)c4)c3)c2c1C showed growth equal to 104

Value of measured growth for the entry CC(C)=CCC/C(C)=C/CC/C(C)=C/CC/C=C(\C)CC/C=C(\C)CCC(=O)Nc1ccn(C2OC(CO)C(O)C2(F)F)c(=O)n1 (stereo unspecified) : -22.3

growth recorded for this compound, COc1cc2cc(Oc3ccc(NC(=O)Nc4cccc(C(F)(F)F)c4)cc3)c(C)nc2cc1OC , is 11.7

// recorded growth for Nc1cc(-c2ccc(Cl)cc2)nn1-c1nc2ccccc2nc1Cc1ccccc1 : 99.5

Looking up IC(I)I , I see its growth listed as 118

The measured growth associated with O=C(O)COc1c(Cl)cc([N+](=O)[O-])cc1Cl reads 99.5

Item: Cc1c2c[n+](C(C)C)ccc2c(C)c2c1[nH]c1ccccc12 | growth: 20.8

The recorded growth for entry COc1cc2cc(Oc3ccc(NC(=O)c4cc(C(F)(F)F)cc(C(F)(F)F)c4)cc3)c(C)nc2cc1OC equals 75.2

Sure, the documented growth for CCOC(=O)c1cc(C(=O)c2ccc(F)cc2F)n2ccccc12 is 95.2

Field growth (entry CCn1c(SCc2ccc(C)cc2)nnc1-c1nn(-c2ccc(Cl)cc2Cl)c(-c2ccc(Cl)cc2)c1C ) reads 19.8

# compound Fc1ccc2[nH]cc(-c3nc(-c4ccsc4)cs3)c2c1 ; its growth = 94

Briefly, growth measured for CCN(CC)CCNc1ccc(C)c2sc3cc(Cl)ccc3c(=O)c12 : 66.3

The reported value for CN1CCN(c2cc3c(cc2F)c(=O)c(C(=O)O)cn3-c2ccc(F)cc2)CC1 in terms of growth is 99.7

Quick note, growth for COc1ccc(/C(C#N)=C/c2cccc(OC)c2OC)cc1 landed at 94.6

Record CCOc1ccccc1/C=N\N=C\c1ccccc1O , field growth: 107

For this compound ( C#C[C@]1(O)CCC2C3CCc4cc(OC5CCCC5)ccc4C3CC[C@@]21C (stereo partly specified) ), measured growth is 101

In plain terms, C[C@]12CCC3c4ccc(O)cc4C[C@@H](CCCCCCCCCS(=O)CCCC(F)(F)C(F)(F)F)C3C1CC[C@@H]2O (stereo partly specified) has a documented growth of 86.4

Given item Cc1ccc(-n2nnnc2N)c(C)c1 , the value recorded as its growth is 123

Lookup result for Cc1nn(-c2ccc(-c3ccc(OC(F)(F)F)cc3)cc2)c2nc(Cc3ccccc3)nc(N)c12 ; measured growth: 80.3

====

# Tested on: SR leukemia
# Procedure summary: NCI-60 one-dose screen, 48 h (100 = growth as untreated, 0 = no growth, -100 = all killed)
# Experimental setup: 10 µM
Compounds without any hit were thinned out: in the full panel of roughly 83,000, 20% have a hit.
Outcome measure: growth (%)
Reply numerically in %, unit not repeated.

compound COc1ccc2nc(-c3ccc(Cl)cc3)cc(-c3nnc(SC/C(=N\O)c4ccccc4)n3-c3ccccc3)c2c1 , growth observed: 67.1

So, COc1cc2c(Nc3ccc(S(N)(=O)=O)cc3)ncnc2c(OC)c1OC ? Its growth was 99.9

The compound listed as Nc1ccc(CC[C@H]2CCC/C=C/[C@@H]3C[C@H](O)C[C@H]3[C@H](O)/C=C/C(=O)O2)cc1 shows growth equal to 1.1

Data point: COc1ccc2c(c1)OC(N)=C(C#N)C2c1cc(OC)c(OC)c(OC)c1 (stereo unspecified) ; growth = 4.02

growth reading for COc1cc2cc(Oc3ccc(NC(=O)Nc4ccc(Cl)c(C(F)(F)F)c4)cc3)c(C)nc2cc1OC : -32.5

So, O=C(Nc1cc(Cl)cc2c1-c1ccc(Cl)cc1C2O)C(Cl)Cl (stereo unspecified) ? Its growth was 82.3

For reference, reported growth for CS(=O)(=O)c1nccc(-c2c(-c3cccc(OCc4ccc(F)cc4)c3)nc3sccn23)n1 stands at 38.6

COc1ccc2c(c1)C(=O)/C(=C/c1ncc([N+](=O)[O-])n1C)O2 yielded growth of 9.33

Others:
get_value(item= COc1cc(C2CC(c3ccccc3)=NN2C(C)=O)cc(OC)c1OC (stereo unspecified) , readout=growth) returns 28.1

Sample COc1ccc(N=Nc2cc(OC)c(OC)c(OC)c2)cc1 ; growth observed: 58.2

// COc1ccc(-c2cc(-c3ccc(OC)c(OC)c3)nc(SCCCC(=O)NO)n2)cc1 : growth value = 15.1

// recorded growth for Cc1cc(CSc2ccccc2C(=O)N2CC=C(c3ccccc3)CC2)on1 : 85.3

The value of growth measured for the compound O=c1oc2c(cc1-c1ccc(F)cc1)C(O)Oc1ccccc1-2 (stereo unspecified) turned out to be 58.1

// COc1cc(/C=C/c2cc(/C=C/c3ccc(O)c(OC)c3)nc(N)n2)ccc1O : growth value = -7.94

compound CN(C)CCCSc1ccccc1NC1=C(Cl)C(=O)C(Nc2ccccc2SCCCN(C)C)=C(Cl)C1=O , growth observed: 2.97

====

# System: HOP-92 NSCLC
# Procedure summary: NCI-60 one-dose screen, 48 h
# Experimental setup: 10 µM
This is part of a sample that, as a whole, favours compounds with a hit. Of some 83,000 tested, about 20% had one in any assay. Activity calls are given as the source filed them. The calls were made as follows: active = growth percent below 10; inactive = the rest.
Answer with one of the outcomes given here: active, inactive

Recorded results for 8 compounds are shown here.
Call for entry CC(=O)Nc1ccc(CC[C@H]2CCC/C=C/[C@@H]3C[C@H](O)C[C@H]3[C@H](O)/C=C/C(=O)O2)cc1 :
active

Which outcome was entered for the compound Nc1ccn(Cc2nnc(CCC(=O)c3nc4ccccc4[nH]3)o2)c(=O)n1 in this test?
inactive

What classification did COc1ccccc1N1CCCSC1=Nc1ccccc1 end up with in this test?
inactive

What did the test return for O=C1/C=C/[C@@H](O)[C@@H]2C[C@@H](O)C[C@H]2/C=C/CCC[C@H](CCc2ccc(NC(=S)Nc3ccc4c(c3)C(=O)OC43c4ccc(O)cc4Oc4cc(O)ccc43)cc2)O1 ?
active

Look up the recorded call for CS(=O)(=O)c1nccc(-c2c(-c3ccc(OCCc4ccccc4)cc3)nc3sccn23)n1 in this test.
inactive

How did this test come out for NC(CSC(c1ccccc1)(c1ccccc1)c1cccc2ccccc12)C(=O)O (centres undefined) ?
inactive

Short answer needed: outcome of this test for COc1ccc(NC(=O)C2CC3C=CC2C3)c([N+](=O)[O-])c1 (centres undefined) ?
inactive

State the result this test recorded for CS(=O)(=O)c1nccc(-c2c(-c3cccc(O)c3)nc3sccn23)n1 .
inactive

***
Entry Cc1cc(O)ccc1C1=NN(c2ccc(S(C)(=O)=O)cc2)C(=O)CC1 : call = ?
inactive

Per the assay record, what outcome was assigned to N#Cc1ccc(C(=O)CSc2nccc(Nc3ccc(C(=O)O)cc3)n2)cc1 ?
inactive

// param item: COc1ccc2nc3cc(Cl)ccc3c(N)c2c1 ; yields the recorded call
inactive

# lookup: test call for CNC(=O)c1cn(C2CC2)c2cc(N3CCN(C(=O)c4cc(OC)c(OC)c(OC)c4)CC3)c(F)cc2c1=O
inactive

Which result was noted for this compound in the test: COc1ccc(-c2nn(-c3cccc(Cl)c3)cc2-c2c(C#N)c(=O)n3[nH]c(-c4ccccc4)nc3c2C#N)cc1
inactive

Dear colleague, could you share the recorded outcome for Cc1ccc(/C=C/C(=O)C(=O)/C=C/c2ccc(C)cc2)cc1 when you have a moment?
inactive

What outcome does the record of this test show for COc1cc2c(Nc3ccc(S(N)(=O)=O)cc3)ncnc2c(OC)c1OC ?
inactive

Kindly provide the recorded test outcome for the following compound: O=[N+]([O-])c1cc(Cl)cc(Cl)c1O
inactive

Short answer needed: outcome of this test for CCC(CC)n1c(C)cc(=O)n1C(CC)CC ?
inactive

Assay outcome for COc1cccc(-c2nc3sccn3c2-c2cccc(S(C)(=O)=O)c2)c1 : what was it?
inactive

Could you check what this test reported for O=C(CCCSc1nc(-c2ccccc2)cc(-c2ccc(Cl)cc2)n1)NO ?
inactive

I would be grateful if you could indicate the recorded call for COC1=CC(=O)OC(c2ccc(OC)cc2)C1 (centres undefined) .
inactive

Per the records of this test, what outcome belongs to CCOS(=O)(=O)c1c(C(C)C)cc(C(C)C)cc1C(C)C ?
inactive

Hi team, can someone confirm the assay call for O=S(=O)(O)c1ccc(Cl)cc1 ?
inactive

Which outcome was entered for the compound CO[C@H]1CC(O[C@@H]2/C(C)=C/C[C@@H]3C[C@@H](C[C@]4(C=C[C@H](C)[C@@H](C5CCCCC5)O4)O3)OC(=O)[C@@H]3C=C(C)[C@@H](O)[C@H]4OC/C(=C\C=C\[C@@H]2C)[C@]43O)O[C@@H](C)C1O[C@H]1C[C@H](OC)[C@@H](O)[C@H](C)O1 (some centres undefined) in this test?
active

Returns: the outcome recorded for COc1cc2cc(Oc3ccc(NC(=O)Nc4ccc(Cl)c(Cl)c4)cc3)c(C)nc2cc1OC in this assay.
active

Dear all, I need the recorded test outcome for COc1cc(C2CC(c3ccc4c(c3)OCO4)=NN2c2ccccc2)cc(OC)c1OC (centres undefined) , thank you.
inactive

Could you check what this test reported for COc1cc(/C=C/c2cc(/C=C/c3ccc(O)c(OC)c3)[nH]c(=O)n2)ccc1O ?
inactive

Lab log entry: CNC(=O)c1c(I)c(NC(C)=O)c(I)c(C(=O)O)c1I — outcome as called in the assay?
inactive

Hi, do you know how NC(=O)c1cccc(-n2ccc3cc(NC(=O)Nc4ccc(Cl)c(C(F)(F)F)c4)ccc32)n1 came out in this test?
inactive
